# protocol.description: Soluble peptide degradation, Media condition (cell-conditioned media, LC-MS)
# Format: in vitro ADME, human
# assay.context: human, hMSC-conditioned media without cells (Media condition); Figure 3B heatmap; split-and-pool libraries KLVADX1X2ASAE in hMSC-conditioned media without cells; 24 h; LC-MS, ratio to βFβA6; N = 2; read-out: Fraction of peptide remaining after 24 hours: hMSC Media
Where a SMILES comes first, the peptide text is derived from it. [ ]: non-standard residue; d: D form. βAla = NCCC(=O)O
test.readout: remaining at 24 h (%)
The figure you give is taken to be in %; do not add the unit.

CC(=O)NCCC(=O)N[C@@H](CCCCN)C(=O)N[C@@H](CC(C)C)C(=O)N[C@H](C(=O)N[C@@H](C)C(=O)N[C@@H](CC(=O)O)C(=O)N[C@@H](CO)C(=O)N[C@@H](Cc1c[nH]c2ccccc12)C(=O)N[C@@H](C)C(=O)N[C@@H](CO)C(=O)N[C@@H](C)C(=O)N[C@@H](CCC(=O)O)C(=O)NCCC(N)=O)C(C)C [Ser-Trp] (Ac-[βAla]KLVADSWASAE[βAla]-NH2)
72

Next item in the queue.
Record CC(=O)NCCC(=O)N[C@@H](CCCCN)C(=O)N[C@@H](CC(C)C)C(=O)N[C@H](C(=O)N[C@@H](C)C(=O)N[C@@H](CC(=O)O)C(=O)N[C@@H](Cc1ccc(O)cc1)C(=O)N1CCC[C@H]1C(=O)N[C@@H](C)C(=O)N[C@@H](CO)C(=O)N[C@@H](C)C(=O)N[C@@H](CCC(=O)O)C(=O)NCCC(N)=O)C(C)C [Tyr-Pro] (Ac-[βAla]KLVADYPASAE[βAla]-NH2) , field remaining at 24 h: 65

Values from paper PMC12683216
